# System: HEK293T-Rex XBP1-RLuc
# Assay Procedure: XBP1-RLuc splicing reporter activation, triplicate, relative to 500 nM thapsigargin (% of thapsigargin); higher = stronger IRE1/XBP1s reporter activation
# Measurement Conditions: 6.8 µM; 18 h; screen: confirmation
Attribute Measured: XBP1-RLuc splicing reporter activation

                                    compound  observed_result
 0           Nc1ccc2nc(/C=C/c3ccco3)[nH]c2c1             17.8
 1  O=c1/c(=C/c2ccc(O)c(O)c2)sc2nc3ccccc3n12             6.32
 2     N#C/C(=C/c1ccc(O)c(O)c1)c1nc2ccccc2s1             19.7
 3       Cc1ccc(O)c(NC(=O)c2cc(CC(C)C)on2)c1             30.2
 4  NC(=O)c1c(NC(=O)/C=C/c2ccccc2)sc2c1CCCCC2             6.12
 5           Cc1ccc(Nc2nc(N)c3ccccc3n2)cc1Cl             8.06
 6     O=C(N/N=C/c1ccc(O)c(O)c1)c1ccc(Br)cc1             20.9
 7  CCCCCCOc1ccc(/C(C)=N/NC2=NCCN2)cc1[N+](=O)[O-]               15
 8  Oc1ccc(-c2cnc3c(Nc4ccc5[nH]ccc5c4)nccn23)cc1             39.2
 9           CCCCNc1ncnc2c1cnn2-c1ccc(Cl)cc1             1.56
10    CN(C)c1ccc(/C=N/NC(=O)c2cccc(Br)c2)cc1             1.93
11            Cc1ccc(O)c(NC(=O)CSc2ccccc2)c1             10.5

====

# System: HEK293T-Rex XBP1-RLuc
# Assay Procedure: XBP1-RLuc splicing reporter activation, triplicate, relative to 500 nM thapsigargin (% of thapsigargin); higher = stronger IRE1/XBP1s reporter activation
# Measurement Conditions: 6.8 µM; 18 h; screen: confirmation
XBP1-RLuc splicing reporter activation vs 10: at or above is Fulfilled, below is Not fulfilled.

In [3]: df
Out[3]:
                                    compound      target_under_test    group_label
 0   CCn1c(/C(C#N)=C/c2ccc(OC)cc2)nc2ccccc21  HEK293T-Rex XBP1-RLuc  Not fulfilled
 1   Cc1cnc(NC(=O)c2sc3nc4c(C)cccc4cc3c2N)s1  HEK293T-Rex XBP1-RLuc      Fulfilled
 2  COC(=O)c1ccc2c(COC(C)=O)c(OC(C)=O)ccc2c1COC(C)=O  HEK293T-Rex XBP1-RLuc      Fulfilled
 3           Oc1ccc(-c2csc(-c3ccccc3)n2)cc1O  HEK293T-Rex XBP1-RLuc      Fulfilled
 4  O=C(N/N=C/c1cccc2ccccc12)c1ccc2c(c1)OCO2  HEK293T-Rex XBP1-RLuc  Not fulfilled
 5  O=C(N/N=C\C(Cl)=C\c1ccccc1)c1n[nH]c2c1CCCC2  HEK293T-Rex XBP1-RLuc  Not fulfilled
 6           Cc1ccn2cc(-c3ccc(O)c(O)c3)nc2c1  HEK293T-Rex XBP1-RLuc      Fulfilled
 7  CC1(C)Cc2ccccc2/C(=C/C(=O)C(=O)N/N=C/c2ccc(O)c(O)c2)N1  HEK293T-Rex XBP1-RLuc      Fulfilled
 8   O=C(N/N=C/c1ccc(Cl)cc1Cl)c1ccc(O)c(O)c1  HEK293T-Rex XBP1-RLuc      Fulfilled
 9        Cc1ccc(O)c(NC(=O)c2cc(C(C)C)on2)c1  HEK293T-Rex XBP1-RLuc      Fulfilled
10    COc1ccc(/C=N/c2sc3c(c2C(N)=O)CCCC3)cc1  HEK293T-Rex XBP1-RLuc  Not fulfilled
